# METHOD_NOTES: AUC in Sprague-Dawley rat at 10 mg/kg, iv
# Assay type: ADME, organism-based
# Parameters: dose 10 mg/kg, route intravenous
# CONDITION_SET: plasma
MEASURED_ATTRIBUTE: AUC (µg·h/mL)
Kindly provide the numeric value in µg·h/mL only, without the unit symbol.

Prompt line: I'd like to know its AUC. The compound in question is CN(C)CCCCCN(C)C1=Nc2ccccc2C(CC(=O)NCc2ccccc2)N1c1ccc(-c2ccccc2)cc1.Cl.Cl (stereo unspecified)
Response line: 279

* * *

# METHOD_NOTES: Toxicity in iv dosed ICR mouse administered as single dose
# Type: organism-based
# CONDITION_SET: in vivo
MEASURED_ATTRIBUTE: LD50
State the value, then name its unit.

Prompt line: I'd like to know its LD50. The compound in question is CN(C)CCCCCN(C)C1=Nc2ccccc2C(CC(=O)NCc2ccccc2)N1c1ccc(-c2ccccc2)cc1.Cl.Cl (stereo unspecified)
Response line: 40 mg/kg

* * *

# METHOD_NOTES: AUC in Sprague-Dawley rat at 5 mg/kg, iv
# Assay type: ADME, organism-based
# Design: dose 5 mg/kg, route intravenous
# CONDITION_SET: plasma
MEASURED_ATTRIBUTE: AUC

Prompt line: I'd like to know its AUC. The molecule in question is CN(C)CCCCCN(C)C1=Nc2ccccc2C(CC(=O)NCc2ccccc2)N1c1ccc(-c2ccccc2)cc1.Cl.Cl (stereo unspecified)
Response line: 128 µg·h/mL

* * *

# METHOD_NOTES: Oral bioavailability in Sprague-Dawley rat at 10 mg/kg
# Type: ADME, organism-based
# CONDITION_SET: in vivo
MEASURED_ATTRIBUTE: bioavailability (%)
Kindly provide the numeric value in % only, without the unit symbol.

Prompt line: I'd like to know its bioavailability. The molecule in question is CN(C)CCCCCN(C)C1=Nc2ccccc2C(CC(=O)NCc2ccccc2)N1c1ccc(-c2ccccc2)cc1.Cl.Cl (stereo unspecified)
Response line: 70.1

* * *

# METHOD_NOTES: Oral bioavailability in Sprague-Dawley rat at 5 mg/kg
# Assay type: ADME, organism-based
# CONDITION_SET: in vivo
MEASURED_ATTRIBUTE: bioavailability (%)
Kindly provide the numeric value in % only, without the unit symbol.

Prompt line: I'd like to know its bioavailability. The compound in question is CN(C)CCCCCN(C)C1=Nc2ccccc2C(CC(=O)NCc2ccccc2)N1c1ccc(-c2ccccc2)cc1.Cl.Cl (stereo unspecified)
Response line: 98.3

* * *

# METHOD_NOTES: Cmax in Sprague-Dawley rat at 10 mg/kg, iv
# Type: ADME, organism-based
# Parameters: dose 10 mg/kg, route intravenous
# CONDITION_SET: in vivo
MEASURED_ATTRIBUTE: Cmax (ng/mL)
Kindly provide the numeric value in ng/mL only, without the unit symbol.

Prompt line: I'd like to know its Cmax. The compound in question is CN(C)CCCCCN(C)C1=Nc2ccccc2C(CC(=O)NCc2ccccc2)N1c1ccc(-c2ccccc2)cc1.Cl.Cl (stereo unspecified)
Response line: 1030

* * *

# METHOD_NOTES: Cmax in Sprague-Dawley rat at 5 mg/kg, iv
# Format: ADME, organism-based
# Parameters: dose 5 mg/kg, route intravenous
# CONDITION_SET: in vivo
MEASURED_ATTRIBUTE: Cmax (ng/mL)
Kindly provide the numeric value in ng/mL only, without the unit symbol.

Prompt line: I'd like to know its Cmax. The molecule in question is CN(C)CCCCCN(C)C1=Nc2ccccc2C(CC(=O)NCc2ccccc2)N1c1ccc(-c2ccccc2)cc1.Cl.Cl (stereo unspecified)
Response line: 460

* * *

# Tested on: HeLa
# METHOD_NOTES: Cytotoxicity against human HeLa cells by MTT assay
# Assay type: functional, cell-based
# CONDITION_SET: hela
MEASURED_ATTRIBUTE: pIC50
Please treat pIC50 as minus the base-10 logarithm of the molar concentration.

Prompt line: I'd like to know its pIC50. The molecule in question is CN(C)CCCCCN(C)C1=Nc2ccccc2C(CC(=O)NCc2ccccc2)N1c1ccc(-c2ccccc2)cc1.Cl.Cl (stereo unspecified)
Response line: 5.51

* * *

# METHOD_NOTES: Toxicity in ICR mouse assessed as mortality rate at 26.6 mg/kg, iv administered as single dose
# Assay type: organism-based
# Parameters: dose 26.6 mg/kg, route intravenous
# CONDITION_SET: in vivo, read-out: Activity
MEASURED_ATTRIBUTE: mortality
State the value, then name its unit.

Prompt line: I'd like to know its mortality. The compound in question is CN(C)CCCCCN(C)C1=Nc2ccccc2C(CC(=O)NCc2ccccc2)N1c1ccc(-c2ccccc2)cc1.Cl.Cl (stereo unspecified)
Response line: 0%

* * *

# Test system: SK-BR-3
# METHOD_NOTES: Cytotoxicity against human SKBR3 cells by MTT assay
# Type: functional, cell-based
# CONDITION_SET: sk-br-3
MEASURED_ATTRIBUTE: pIC50
Please treat pIC50 as minus the base-10 logarithm of the molar concentration.

Prompt line: Lab note: need pIC50 for CN(C)CCCCCN(C)C1=Nc2ccccc2C(CC(=O)NCc2ccccc2)N1c1ccc(-c2ccccc2)cc1.Cl.Cl (stereo unspecified) on SK-BR-3, anyone have it?
Response line: 5.74

* * *

# METHOD_NOTES: Toxicity in po dosed ICR mouse administered as single dose
# Assay type: organism-based
# CONDITION_SET: in vivo
MEASURED_ATTRIBUTE: LD50 (mg/kg)
Kindly provide the numeric value in mg/kg only, without the unit symbol.

Prompt line: I'd like to know its LD50. The compound in question is CN(C)CCCCCN(C)C1=Nc2ccccc2C(CC(=O)NCc2ccccc2)N1c1ccc(-c2ccccc2)cc1.Cl.Cl (stereo unspecified)
Response line: 693

* * *

# Tested on: A549
# METHOD_NOTES: Cytotoxicity against human A549 cells by MTT assay
# Format: functional, cell-based
# CONDITION_SET: Homo sapiens, A549
MEASURED_ATTRIBUTE: IC50 (µM)
Kindly provide the numeric value in µM only, without the unit symbol.

Prompt line: I'd like to know its IC50. The compound in question is CN(C)CCCCCN(C)C1=Nc2ccccc2C(CC(=O)NCc2ccccc2)N1c1ccc(-c2ccccc2)cc1 (stereo unspecified)
Response line: 5.17
